# testTarget: HSP60/HSP10 (Homo sapiens, UniProt P10809)
# Sequence (P10809 whole entry): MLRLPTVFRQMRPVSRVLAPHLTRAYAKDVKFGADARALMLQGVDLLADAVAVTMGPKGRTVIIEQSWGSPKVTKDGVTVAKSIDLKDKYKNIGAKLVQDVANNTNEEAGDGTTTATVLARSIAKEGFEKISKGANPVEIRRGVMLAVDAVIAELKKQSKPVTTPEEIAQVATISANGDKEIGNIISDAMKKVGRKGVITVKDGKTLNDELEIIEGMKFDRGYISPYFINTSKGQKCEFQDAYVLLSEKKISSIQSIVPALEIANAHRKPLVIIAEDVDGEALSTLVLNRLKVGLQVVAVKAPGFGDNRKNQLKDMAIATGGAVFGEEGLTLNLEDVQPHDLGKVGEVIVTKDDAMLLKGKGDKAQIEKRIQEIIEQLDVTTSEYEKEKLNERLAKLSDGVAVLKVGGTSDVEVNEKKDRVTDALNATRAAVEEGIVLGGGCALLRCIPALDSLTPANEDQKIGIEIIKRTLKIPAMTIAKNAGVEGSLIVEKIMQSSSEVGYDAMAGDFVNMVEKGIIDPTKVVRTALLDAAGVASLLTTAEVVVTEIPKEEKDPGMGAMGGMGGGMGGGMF
# Sequence (P61604 whole entry, further chain): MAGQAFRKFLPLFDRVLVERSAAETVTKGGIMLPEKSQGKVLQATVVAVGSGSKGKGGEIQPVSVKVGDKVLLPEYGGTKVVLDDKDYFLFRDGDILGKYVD
Please use the following IC50 ranges when assigning a class: bucket A = under 20 µM, bucket B = from 20 µM up to 70 µM, bucket C = 70 µM and over

The following compounds have reported results that may help.
{"smilesString": "O=C(Nc1ccc(Sc2nc3ccccc3s2)c(Cl)c1)c1cccc(Br)c1O", "label": "bucket A"}
{"smilesString": "Nc1ccc(S(=O)(=O)Nc2ccc(-c3nc4cc(NS(=O)(=O)c5ccc(N)cc5)ccc4o3)cc2)cc1", "label": "bucket B"}
{"smilesString": "COc1ccc(S(=O)(=O)Nc2ccc3oc(-c4ccc(NS(=O)(=O)c5cc(F)ccc5OC)cc4)nc3c2)cc1", "label": "bucket C"}
{"smilesString": "COc1ccc(S(=O)(=O)Nc2ccc3oc(-c4ccc(NC(=O)C5CCN(C(C)=O)CC5)cc4)nc3c2)cc1", "label": "bucket B"}
{"smilesString": "O=S(=O)(Nc1ccc(-c2nc3cc(NS(=O)(=O)c4ccc(Cl)s4)ccc3o2)cc1)c1ccc(Cl)s1", "label": "bucket A"}

Could you now consider this next compound?
Into which bin does this compound go? COc1ccccc1S(=O)(=O)Nc1ccc(-c2nc3cc(NS(=O)(=O)c4ccccc4OC)ccc3o2)cc1
bucket C

====

# testDetails: Cytotoxicity against human THLE-3 cells assessed as reduction in cell viability measured after 48 hrs by AlamarBlue assay
# Assay type: cell-based
# runConditions: THLE-3 cells
Let's look at some compounds and their measured CC50 at 48 h.

Consider the worked cases shown below.
{"smilesString": "O=S(=O)(Nc1ccc(-c2nc3cc(NS(=O)(=O)c4ccccc4Cl)ccc3o2)cc1)c1ccccc1Cl", "quantityKind": "CC50 at 48 h", "obsValue": "25 µM"}
{"smilesString": "O=C(Nc1ccc(Sc2nc3ccccc3s2)cc1)c1cc(Br)cc(Br)c1O", "quantityKind": "CC50 at 48 h", "obsValue": "19 µM"}
{"smilesString": "O=C(Nc1ccc(Sc2nc3ccccc3s2)c(Cl)c1)c1cccc(Br)c1O", "quantityKind": "CC50 at 48 h", "obsValue": "18 µM"}
{"smilesString": "COc1ccccc1S(=O)(=O)Nc1ccc(-c2nc3cc(NS(=O)(=O)c4ccccc4OC)ccc3o2)cc1", "quantityKind": "CC50 at 48 h", "obsValue": "48 µM"}
{"smilesString": "Cc1ccc(S(=O)(=O)Nc2ccc(-c3nc4ccc(NS(=O)(=O)c5ccc(C)cc5)cc4[nH]3)cc2)cc1", "quantityKind": "CC50 at 48 h", "obsValue": "22 µM"}
{"smilesString": "COc1c(Br)cccc1C(=O)Nc1ccc(Sc2nc3ccccc3s2)c(Cl)c1", "quantityKind": "CC50 at 48 h", "obsValue": "14 µM"}
{"smilesString": "O=C(Nc1ccc(Sc2nc3ccccc3s2)cc1)c1cccc(Br)c1O", "quantityKind": "CC50 at 48 h", "obsValue": "12 µM"}
{"smilesString": "O=S(=O)(Nc1ccc(-c2nc3cc(NS(=O)(=O)c4ccc(F)cc4)ccc3o2)cc1)c1ccc(F)cc1", "quantityKind": "CC50 at 48 h", "obsValue": "22 µM"}

Next compound, CC50 at 48 h to be filled in.
Given the compound O=S(=O)(Nc1ccc(-c2nc3cc(NS(=O)(=O)c4ccc(Cl)s4)ccc3o2)cc1)c1ccc(Cl)s1 , what is its reported CC50 at 48 h?
48 µM
